Biological target: HLA-B*5401 (human)
Test: competition vs 125I-labelled probe peptide, purified HLA, gel filtration
IC50 listing for selected binders.
Enter your answer as a number in µM; do not include the unit.

State its IC50: FPAARPAGI (9-mer analog of the HER2/neu peptide starting at position 1157) [Her2/neu.1157.F1I9]
0.048

State its IC50: FPREGPLPI (9-mer analog of the HER2/neu peptide starting at position 1151) [Her2/neu.1151.F1I9]
0.004

State its IC50: FPSETDGYV [Her2/neu.1120.F1]
0.026

State its IC50: FPTHDPSPI [Her2/neu.1101.F1I9]
0.05
